Test system: Rattus norvegicus
Settings: acute; oral; gavage; Sprague-Dawley
Recorded LD50 by entry
MEASUREMENT LABEL: LD50

>>> recorded_measurement("CCCC(c1cc(C(C)(C)C)c(O)cc1C)c1cc(C(C)(C)C)c(O)cc1C [4,4'-Butane-1,1-diylbis(2-tert-butyl-5-methylphenol)]")
"> 7940 mg/kg"
>>> recorded_measurement("CCCCCCCCCc1cc2ccccc2c(S(=O)(=O)O)c1CCCCCCCCC [Dinonylnaphthalenesulfonic acid]")
"> 5000 mg/kg"
>>> recorded_measurement("O=C(Nc1ccc(Cl)cc1)Nc1ccc(Cl)c(Cl)c1 [Triclocarban]")
"> 50100 mg/kg"
